- Tested on: complementary RNA sequences
- Type: binding
- ASSAY SETUP: pH 7
Entries and their measured Tm follow.
API: value field is a number in °C; no unit string.

>  <SUBSTANCE>
Example 90: TTT T*TC TCT CTC TCT, T*T unit derived from Compound 81B (TTTTTCTCTCTCTCT; one T*T dimer with modified linkage from Compound 81B, further chemistry not given here)

>  <TARGET ENTITY>
complementary RNA sequences

>  <MEASURE UNIT>
°C

>  <Tm>
47.2

$$$$

Note: attention shifts to another entry.
Problem: For the substance shown here, Example 95: CTC GTA CT*T T*TC CGG TCC, T*T units derived from Compound 81 (hydrolysed) (CTCGTACTTTTCCGGTCC; two T*T dimers with modified linkage from hydrolysed Compound 81, further chemistry not given here) , give the reported Tm.
Result: 58.2

Sourced from patent US5466677A
